Hello, the source for this data is PubChem BioAssay (NCATS), in case you need it.

experiment: qHTS drug screen for cell cycle checkpoint inhibitors in PARPi-resistant BRCA-mutant ovarian cancer cell lines. (AID 1963452); conditions: PEO1/OlaR viability, CellTiter-Glo luminescence, 96 h; further: potency means the concentration at half of the fitted maximal effect
Activity calls are given as the source filed them. The call rests on the fitted dose curve.
MEASUREMENT LABEL: Potency

- SMILES TEXT: "O=C(Nc1cn[nH]c1-c1nc2ccc(CN3CCOCC3)cc2[nH]1)NC1CC1"
  MEASUREMENT LABEL: "Potency"
  READOUT VALUE: "871 nM (active)"
- SMILES TEXT: "CC[C@@]1(O)C(=O)OCc2c1cc1n(c2=O)Cc2cc3cc(O)ccc3nc2-1"
  MEASUREMENT LABEL: "Potency"
  READOUT VALUE: "38.9 nM (active)"
- SMILES TEXT: "CCc1c2c(nc3ccc(O)cc13)-c1cc3c(c(=O)n1C2)COC(=O)[C@]3(O)CC"
  MEASUREMENT LABEL: "Potency"
  READOUT VALUE: "6.2 nM (active)"
- SMILES TEXT: "COC(=O)C[C@](O)(CCCC(C)(C)O)C(=O)O[C@@H]1C(OC)=C[C@]23CCCN2CCc2cc4c(cc2[C@H]13)OCO4"
  MEASUREMENT LABEL: "Potency"
  READOUT VALUE: "436 nM (active)"
- SMILES TEXT: "C[C@@H]1COC(Nc2ccc3ncnc(Nc4ccc(OCc5nccs5)c(Cl)c4)c3c2)=N1"
  MEASUREMENT LABEL: "Potency"
  READOUT VALUE: "13800 nM (active)"

====

assay: Identifying Small Molecule Inhibitors of Pancreatic Cancer Stem Cells (A278, Adherent) (AID 1259361); conditions: series mostly up to 46.1 µM;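 further: viability read after 48 h compound exposure; nearly all actives have a fitted effect of over 35% in size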
Records with an inconclusive call do not appear. The source made the active and inactive calls. Calls come from the whole dose curve; as a rule, active = well fitted cell-killing curve with a large enough effect; inconclusive = small, poorly fitted or top-dose-only effect; inactive = flat fitted curve, though single readings scatter.
// reported IC50 (viability decrease) for each item listed

- MOLECULE: "COc1cccc2nc(-c3cccs3)nc(NN3C(=O)C=C(C)C3=O)c12"
  IC50 (viability decrease): "469 nM (active)"
- MOLECULE: "Cc1[nH]c2ccccc2c1CCNCc1ccc(C=CC(=O)NO)cc1"
  IC50 (viability decrease): "118 nM (active)"
- MOLECULE: "CCC(=C(c1ccccc1)c1ccc(OCCN(C)C)cc1)c1ccccc1"
  IC50 (viability decrease): "23500 nM (active)"
- MOLECULE: "CC[C@@H]1C(=O)N(C)c2cnc(Nc3ccc(C(=O)NC4CCC(N5CCN(CC6CC6)CC5)CC4)cc3OC)nc2N1C(C)C (stereo not given in full)"
  IC50 (viability decrease): "20.9 nM (active)"
- MOLECULE: "Nc1nc(Nc2ccc(S(N)(=O)=O)cc2)nn1C(=O)c1c(F)cccc1F"
  IC50 (viability decrease): "2640 nM (active)"

====

Assay: Quantitative High-Throughput drug screen in 47 multiple myeloma cell lines against the NCATS MIPE library collection: KMS28BM_JCRB cell viability assay (AID 1919874); further: nearly all actives have a fitted effect of over 35% in size
Conditions: CellTiter-Glo ATP, 48 h; series mostly up to 45.8 µM
From the text: PI: Beverly A. Mock Ph.D. Laboratory of Cancer Biology and Genetics, Center for Cancer Research, National Cancer Institute, National Institute of Health, Bethesda, Maryland […] 5; Detector; 425V; Luminescence; Viewlux PerkinElmer. […] 1. […] Briefly, the corresponding myeloma cell lines were screened in 1,536-well plates with 500 cells, 5-uL per well for inhibition of cell viability (assessed by measuring ATP levels with CellTiterGlo). […]
Records with an inconclusive call do not appear. Activity calls are given as the source filed them. Calls follow the shape of the dose curve; as a rule, active = well fitted cell-killing curve with a large enough effect; inconclusive = small, poorly fitted or top-dose-only effect, or effect the other way; inactive = no such curve, though single readings can be large or run the other way.
Labels: TRUE = active, FALSE = inactive

- COMPOUND: "O=C(O)C1(Cc2cccc(Nc3nccs3)n2)CCC(Oc2cccc(Cl)c2F)CC1 (centres undefined)"
  LABEL VALUE: "TRUE"
- COMPOUND: "COc1cc(C(=O)NS(=O)(=O)c2ccccc2C)ccc1Cc1cn(C)c2ccc(NC(=O)OC3CCCC3)cc12"
  LABEL VALUE: "TRUE"
- COMPOUND: "C[C@H]1C[C@@H]2[C@@H]([C@@H](O)C[C@@]3(C)[C@H]2CC[C@]3(O)C(=O)CO)[C@@]2(C)C=CC(=O)C=C12"
  LABEL VALUE: "FALSE"
- COMPOUND: "CN(C)Cc1c(C(=O)NCCOc2ccc(C(=O)NO)cc2)oc2ccccc12"
  LABEL VALUE: "TRUE"
- COMPOUND: "Nc1ccn([C@@H]2CS[C@H](CO)O2)c(=O)n1"
  LABEL VALUE: "FALSE"
- COMPOUND: "CCC[C@H](NC(=O)C(C#N)=Cc1cccc(Br)n1)c1ccccc1"
  LABEL VALUE: "TRUE"
- COMPOUND: "OCCCNc1cc(-c2ccnc(Nc3cccc(Cl)c3)n2)ccn1"
  LABEL VALUE: "TRUE"
- COMPOUND: "O=C(NCCS(=O)(=O)c1ccc(C(F)(F)F)cn1)c1ccc(Cl)cc1"
  LABEL VALUE: "FALSE"
- COMPOUND: "Nc1nccc(Oc2ccc(NC(=O)c3c[nH]cc(-c4ccc(F)cc4)c3=O)cc2F)c1Cl"
  LABEL VALUE: "TRUE"
- COMPOUND: "C=CCn1c(=O)c2cnc(Nc3ccc(N4CCN(C)CC4)cc3)nc2n1-c1cccc(C(C)(C)O)n1"
  LABEL VALUE: "TRUE"
- COMPOUND: "O=C(Nc1ncc(-c2cc(C(F)F)nn2-c2c(Cl)cccc2Cl)s1)C1CC1"
  LABEL VALUE: "TRUE"
- COMPOUND: "COC(=O)C[C@](O)(CCCC(C)(C)O)C(=O)O[C@@H]1C(OC)=C[C@]23CCCN2CCc2cc4c(cc2[C@H]13)OCO4"
  LABEL VALUE: "TRUE"
- COMPOUND: "CCn1cc(-c2ccnc3[nH]c(-c4cccc(CN(C)C)c4)cc23)c(-c2ccc(NC(=O)N(C)C)cc2)n1"
  LABEL VALUE: "TRUE"
- COMPOUND: "Cc1cnc(Nc2ccc(F)cc2Cl)nc1-c1c[nH]c(C(=O)N[C@H](CO)c2cccc(Cl)c2)c1"
  LABEL VALUE: "TRUE"
- COMPOUND: "CC(C)c1ccccc1Cc1cc(C(=O)Nc2ccc(S(=O)(=O)c3ccccc3C(C)(C)C)cc2)c(O)c(O)c1O"
  LABEL VALUE: "TRUE"
- COMPOUND: "CC(=O)OCC(=O)[C@@]1(O)[C@H](C)C[C@H]2[C@@H]3C=C(C)C4=Cc5c(cnn5-c5ccccc5)C[C@]4(C)[C@@H]3[C@@H](O)C[C@@]21C"
  LABEL VALUE: "FALSE"
- COMPOUND: "CC(=O)Nc1sc2c(c1-c1nc3ccccc3s1)CNC2"
  LABEL VALUE: "TRUE"
- COMPOUND: "NC(=O)c1cccc2cn(-c3ccc([C@@H]4CCCNC4)cc3)nc12"
  LABEL VALUE: "FALSE"
- COMPOUND: "CCCCOc1c(C(=O)c2c(F)cc(C)cc2F)cnc2n[nH]cc12"
  LABEL VALUE: "TRUE"
